Kindly state IC50 (µg/mL), pseudovirus neutralization for each of the entries shown.
- Target Desc: HIV-1 Env of isolate MGRM-C-027 (subtype C) (HIV-1)
- Method: cell-based or functional assay

Sample answers from the record:
{"columns": ["Binder", "IC50 (µg/mL), pseudovirus neutralization"],
 "data": [
  ["PGT-127 (antibody, V domains shown) VH: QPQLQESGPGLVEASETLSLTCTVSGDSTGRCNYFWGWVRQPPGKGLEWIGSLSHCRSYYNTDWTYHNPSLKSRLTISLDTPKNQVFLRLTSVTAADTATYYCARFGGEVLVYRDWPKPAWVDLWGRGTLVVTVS VL: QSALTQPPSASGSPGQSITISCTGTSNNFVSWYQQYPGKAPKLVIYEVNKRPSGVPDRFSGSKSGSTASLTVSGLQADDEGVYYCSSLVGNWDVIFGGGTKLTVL", "> 50 µg/mL"],
  ["PGT-126 (antibody, V domains shown) VH: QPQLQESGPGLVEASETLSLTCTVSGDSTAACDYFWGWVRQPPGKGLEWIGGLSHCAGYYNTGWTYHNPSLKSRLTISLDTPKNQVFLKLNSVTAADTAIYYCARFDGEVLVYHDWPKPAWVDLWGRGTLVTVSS VL: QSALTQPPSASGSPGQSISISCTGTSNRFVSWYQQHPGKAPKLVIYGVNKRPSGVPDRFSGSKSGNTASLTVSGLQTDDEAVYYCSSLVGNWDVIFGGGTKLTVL", "15.6 µg/mL"],
  ["PGT-123 (antibody, V domains shown) VH: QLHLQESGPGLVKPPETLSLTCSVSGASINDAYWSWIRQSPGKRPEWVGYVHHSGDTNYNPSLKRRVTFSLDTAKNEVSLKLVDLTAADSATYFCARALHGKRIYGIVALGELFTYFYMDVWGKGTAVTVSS VL: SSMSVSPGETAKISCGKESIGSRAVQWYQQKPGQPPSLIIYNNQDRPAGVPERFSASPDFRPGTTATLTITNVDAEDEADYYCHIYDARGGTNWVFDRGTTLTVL", "0.02 µg/mL"]
]}

Could you now look at the following binder, please?
query: State the recorded IC50 (µg/mL), pseudovirus neutralization for this entry: PGT-125 (antibody, V domains shown) VH: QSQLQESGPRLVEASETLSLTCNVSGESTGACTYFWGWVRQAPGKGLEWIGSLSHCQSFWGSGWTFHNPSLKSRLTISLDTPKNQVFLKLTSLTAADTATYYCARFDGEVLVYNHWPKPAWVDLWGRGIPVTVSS VL: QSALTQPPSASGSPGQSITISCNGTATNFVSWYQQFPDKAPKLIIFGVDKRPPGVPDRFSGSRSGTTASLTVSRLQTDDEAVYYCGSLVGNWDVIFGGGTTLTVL
result: > 50 µg/mL
